experiment: recombinant UMI read abundance after kanamycin selection (control-corrected) (log10(CPM+1)); higher = more efficient recombination; extreme values may be limits of the assay; sequences stand for … in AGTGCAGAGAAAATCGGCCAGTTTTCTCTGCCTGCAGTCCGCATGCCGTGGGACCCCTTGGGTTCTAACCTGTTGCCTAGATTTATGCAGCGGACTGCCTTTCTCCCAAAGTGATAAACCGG…AGGTTGGTTTCACT; site = the 11-nt donor
endpoint-name: recombinant UMI read abundance (log10)
Kindly provide the number alone.

{"residue-sequence": "AGCCACCCATGGACCGGTTTTCCCGGTAATCCGTATTTGTT (site TGCCACCCTAA)", "recorded-number": 0}
{"residue-sequence": "CAATTCCCATGGACCGGTTTTCCCGGTAATCCGTATTTGCC (site CAATTCCCTAG)", "recorded-number": 0.635}
{"residue-sequence": "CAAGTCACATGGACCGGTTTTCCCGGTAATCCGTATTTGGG (site CAAGGCACTCC)", "recorded-number": 0.0072}
{"residue-sequence": "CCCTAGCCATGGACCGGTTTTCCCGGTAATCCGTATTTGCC (site CTCTAGCCTGG)", "recorded-number": 0}

Task: Report recombinant UMI read abundance (log10) for ATCTAAACATGGACCGGTTTTCCCGGTAATCCGTATTTGAC (site ATCTAGACTGT) please.
Output: 0

Task: What would you report for CGGGAGTCATGGACCGGTTTTCCCGGTAATCCGTATTTGAC (site CGGGAGTCTGA) ?
Output: 2.28

Task: What would you report for GCTGGCCCATGGACCGGTTTTCCCGGTAATCCGTATTTGAT (site GCTCGCCCTAT) ?
Output: 0.00439

Task: What would you report for CTGCTACCATGGACCGGTTTTCCCGGTAATCCGTATTTGTT (site CTGCTACCTAA) ?
Output: 0.0134

Task: What would you report for GACACGCCATGGACCGGTTTTCCCGGTAATCCGTATTTGTG (site GACACGCCTCA) ?
Output: 0.149

Task: What would you report for CCTAGAACATGGACCGGTTTTCCCGGTAATCCGTATTTGAG (site GCTAGAACTCT) ?
Output: 0.0133

Task: What would you report for ACAGTCTCATGGACCGGTTTTCCCGGTAATCCGTATTTGCT (site ACAGTCTCTAG) ?
Output: 2.94

Task: What would you report for AATCTGTCATGGACCGGTTTTCCCGGTAATCCGTATTTGAC (site AATTTGTCTGT) ?
Output: 0

Task: What would you report for AAATGGCCATGGACCGGTTTTCCCGGTAATCCGTATTTGCA (site CAATGGCCTTG) ?
Output: 0

---

assay: recombinant barcode read abundance after kanamycin selection (control-corrected) (log10(CPM+1)); higher = more efficient recombination; sequences stand for … in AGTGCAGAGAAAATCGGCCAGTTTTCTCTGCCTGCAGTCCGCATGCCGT…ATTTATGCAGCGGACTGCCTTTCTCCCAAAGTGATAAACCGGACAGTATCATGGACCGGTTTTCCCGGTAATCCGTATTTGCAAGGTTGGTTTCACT; site = the 11-nt target
The entries below come with measured recombinant barcode read abundance (log10) values attached.
Kindly provide the number alone.

Task: Report recombinant barcode read abundance (log10) for CGCGCCCACTGGGTTCTAACCTGTTGCGGGT [CGCGCCCCTCC_LTGcore_AC_RTGcore_AC] (site CGCGCCCCTCC) (LTG core: AC, RTG core: AC) please.
Output: 0.0786
